Recorded protein stability index for the following variants
B1: ZNF232 (parent)
chain: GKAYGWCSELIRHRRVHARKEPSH

variants of: B1; experiment: protein stability index of a GFP-peptide fusion (GPS, HEK-293T) (PSI 1-6); higher = more stable; conditions: c terminus: a fixed tail appended;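 also: lentivirally expressed fusions sorted by FACS into six bins by GFP to DsRed ratio, PSI derived from sequencing read proportions per bin multiplied by bin number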

# SEQUENCE_INPUT, protein stability index
rows = [
    ("GKAYGWCSELIRHRRVHARKEPEH [S23E]", 3.92),
    ("GKAHGWCSELIRHRRVHARKEPSH [Y4H]", 3.63),
    ("GKDYGWCSELIRHRRVHARKEPSH [A3D]", 3.39),
    ("GKAYGWCSELKRHRRVHARKEPSH [I11K]", 3.16),
    ("GKAYGWCSELIRHRRVHARKERSH [P22R]", 3.17),
    ("GKAYGWCSELIRHRRIHARKEPSH [V16I]", 2.42),
    ("GKGYGWCSELIRHRRVHARKEPSH [A3G]", 3),
    ("GKAYGWCSELWRHRRVHARKEPSH [I11W]", 2.79),
    ("GKAYGWCSELLRHRRVHARKEPSH [I11L]", 2.61),
    ("GKAYGWCSELIRHRRVHARLEPSH [K20L]", 1.93),
    ("GKAYGWYSELIRHRRVHARKEPSH [C7Y]", 2.57),
]

This collection of values is drawn from the supplement of paper PMC10567573.
